Record form. Attribute: % Inhibition. Fill in for each entry.
System: P. falciparum stage V gametocytes
Set-up: BacTiter-Glo ATP luminescence viability of purified stage V gametocytes in 384-well plates, per cent inhibition versus DMSO
SETUP CONDITIONS: 48 h, 5 µM; inhibitor
About 3,200 (25%) of roughly 13,000 compounds showed an effect of 50% or more. This is one part of the list.
Answers are plain numbers, in %.

Consider the following illustrative entries.
MOLECULE: COc1ccc2nccc([C@@H](O)CN3CCC(NCCOc4cccc(F)c4F)CC3)c2c1
UNIT INFO: %
% Inhibition: 24.45
--
MOLECULE: COc1ccc2nccc([C@@H](O)CN3CCC(NCCOc4cc(C(F)(F)F)ccc4F)CC3)c2c1
UNIT INFO: %
% Inhibition: 14.45
--
MOLECULE: O=C(Nc1cc(F)cc(F)c1)NC1CCN(CCCCCNC(=O)C2CC2c2ccc(Cl)c(Cl)c2)CC1 (stereo not shown)
UNIT INFO: %
% Inhibition: 75.57

Now for a further molecule.
Please report the recorded % Inhibition for CCCCN(Cc1cccc(C(F)(F)F)c1Cl)c1ccc(C(O)(C(F)(F)F)C(F)(F)F)cc1 .
-4.716

====

Record form. Attribute: % Inhibition. Fill in for each entry.
System: P. falciparum stage V gametocytes
Parameters: BacTiter-Glo ATP luminescence viability of purified stage V gametocytes in 384-well plates, per cent inhibition versus DMSO
SETUP CONDITIONS: 48 h, 5 µM; inhibitor
The whole screen tested about 13,000 compounds, of which about 3,200 (25%) showed an effect of 50% or more. Some of the results follow.
Numbers only, in %.

Consider the following illustrative entries.
MOLECULE: O=C(Cc1ccccc1)NC1(c2ccccc2)CCN(CCc2c[nH]c3ccc(F)cc23)CC1 [TCMDC-131991]
% Inhibition / %: 26.26
--
MOLECULE: CCOc1ccc(C=CC(=O)Nc2ccc3nc(N4CCOCC4)cc(C)c3c2)cc1OC [TCMDC-124420]
% Inhibition / %: -58.06

Provide % Inhibition values for the following items, in order.
1. CC1CCCN(c2ccc(NC(=O)c3cccs3)cc2[N+](=O)[O-])C1 (centres unmarked) [TCMDC-124625]
2. O=C(Nc1ccc2c(c1)CN(Cc1ccc(N3CCCC3)o1)CCC2)c1ccoc1 [TCMDC-134723]
3. COC(=O)c1ccc(CCCNCC(O)c2cccc(C(F)(F)F)c2)cc1 (centres unmarked) [TCMDC-131462]
4. COc1ccc2nc(C)cc(NN=Cc3ccc(Cl)cc3)c2c1 [TCMDC-123971]
5. CC(C)CCN1CCCN(Cc2ccc(C(=O)NCc3ccc(Cl)cc3)cc2)CC1 [TCMDC-136452]
6. O=C(NCc1ccco1)c1ccc(S(=O)(=O)c2ccc(Cl)cc2)cc1 [TCMDC-124393]

1: 1.853; 2: -9.381; 3: 1.956; 4: 99.29; 5: -12.3; 6: 65.45

====

Record form. Attribute: % Inhibition. Fill in for each entry.
System: P. falciparum stage V gametocytes
Parameters: BacTiter-Glo ATP luminescence viability of purified stage V gametocytes in 384-well plates, per cent inhibition versus DMSO
SETUP CONDITIONS: 48 h, 5 µM; inhibitor
In all, about 13,000 compounds went through this assay and about 3,200 (25%) showed an effect of 50% or more. This is one part of the list.
Give bare numbers, in %.

Consider the following illustrative entries.
MOLECULE: CC(CON1C(N)=NC(N)=NC1(C)C)Cc1ccc(Cl)cc1Cl (stereo not shown)
% Inhibition / %: 20.42

MOLECULE: N#Cc1ccc(N2CCN(Cc3cccc(-c4ccc(-c5nc6cc(C(F)(F)F)ccc6[nH]5)s4)c3)CC2)nc1.O=C(O)C(F)(F)F
% Inhibition / %: -37.6

MOLECULE: COc1ccc(-c2ccc(CNCc3ccc(F)cc3)cc2)cc1S(=O)(=O)NCCN1CCCC1
% Inhibition / %: 111.7

MOLECULE: COc1ccc(CNCc2ccccc2)cc1-c1ccc(OC)c(S(=O)(=O)NCCN2CCCC2)c1
% Inhibition / %: 31.04

MOLECULE: CC(N)(Cc1ccc(O)cc1)c1nn[nH]n1 (stereo not shown)
% Inhibition / %: -7.705

MOLECULE: COc1ccc(-c2cccc(CNCc3ccc(F)cc3)c2)cc1S(=O)(=O)NCCN1CCCC1
% Inhibition / %: 73.1

Now for a further molecule.
Please report the recorded % Inhibition for CC(C)NCc1cccc(-c2ccc(NS(=O)(=O)c3cccc4cccnc34)cc2)c1 .
43.51

Numbers sourced from paper PMC4552634.
